B1: TOR1AIP2 (parent)
chain: AGQEGEDTLRRRLLAPEAGSHPQQ

variants of: B1; assay: protein stability index of a GFP-peptide fusion (GPS, HEK-293T) (PSI 1-6); higher = more stable; conditions: c terminus: a fixed tail appended;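 further: lentivirally expressed fusions sorted by FACS into six bins by GFP to DsRed ratio, PSI derived from sequencing read proportions per bin multiplied by bin number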
PROPERTY_NAME: protein stability index

[[record]]
variant_description = "D7C"
recorded_result = 1.54

[[record]]
variant_description = "S20G"
recorded_result = 2.25

[[record]]
variant_description = "E17D"
recorded_result = 2.2

[[record]]
variant_description = "E6Y"
recorded_result = 2.5

[[record]]
variant_description = "R10A"
recorded_result = 4.84

[[record]]
variant_description = "S20L"
recorded_result = 2.09

[[record]]
variant_description = "G5K"
recorded_result = 2.46

[[record]]
variant_description = "P16M"
recorded_result = 4.81

[[record]]
variant_description = "P22Q"
recorded_result = 2.34

[[record]]
variant_description = "G2I"
recorded_result = 2.19

[[record]]
variant_description = "D7Y"
recorded_result = 2.41

[[record]]
variant_description = "P16Y"
recorded_result = 4.86

[[record]]
variant_description = "R11P"
recorded_result = 5.65

[[record]]
variant_description = "R10H"
recorded_result = 5.31

[[record]]
variant_description = "G2Y"
recorded_result = 2.12

[[record]]
variant_description = "H21S"
recorded_result = 2.76

[[record]]
variant_description = "L9P"
recorded_result = 4.27

[[record]]
variant_description = "G2V"
recorded_result = 1.67

[[record]]
variant_description = "G5W"
recorded_result = 1.35

[[record]]
variant_description = "A15H"
recorded_result = 5.18

[[record]]
variant_description = "G5H"
recorded_result = 2.08

[[record]]
variant_description = "E17R"
recorded_result = 4.68

[[record]]
variant_description = "G5E"
recorded_result = 2.72

[[record]]
variant_description = "S20E"
recorded_result = 2.91

[[record]]
variant_description = "Q23A"
recorded_result = 2.36

[[record]]
variant_description = "H21D"
recorded_result = 3.73

[[record]]
variant_description = "G2Q"
recorded_result = 1.64

[[record]]
variant_description = "R10I"
recorded_result = 4.62

[[record]]
variant_description = "Q3S"
recorded_result = 2.31

[[record]]
variant_description = "D7I"
recorded_result = 1.76

[[record]]
variant_description = "L14N"
recorded_result = 5.56

[[record]]
variant_description = "A15G"
recorded_result = 4.34

[[record]]
variant_description = "P22K"
recorded_result = 2.44

[[record]]
variant_description = "T8V"
recorded_result = 3.16

[[record]]
variant_description = "A15N"
recorded_result = 4.55

[[record]]
variant_description = "L13E"
recorded_result = 5.53

[[record]]
variant_description = "E4P"
recorded_result = 1.61

[[record]]
variant_description = "A15Q"
recorded_result = 4.9

[[record]]
variant_description = "E4L"
recorded_result = 1.81

[[record]]
variant_description = "Q23D"
recorded_result = 2.75

[[record]]
variant_description = "R12M"
recorded_result = 1.8

[[record]]
variant_description = "T8R"
recorded_result = 2.71

[[record]]
variant_description = "L14M"
recorded_result = 4.6

[[record]]
variant_description = "G5F"
recorded_result = 1.83

[[record]]
variant_description = "E6P"
recorded_result = 2.88

[[record]]
variant_description = "L13G"
recorded_result = 5.55

[[record]]
variant_description = "L14A"
recorded_result = 5.73

[[record]]
variant_description = "Q24L"
recorded_result = 1.79

[[record]]
variant_description = "E6N"
recorded_result = 3.08

[[record]]
variant_description = "Q23M"
recorded_result = 2.24

[[record]]
variant_description = "L9Y"
recorded_result = 3.67

[[record]]
variant_description = "Q24T"
recorded_result = 2.22

[[record]]
variant_description = "E4D"
recorded_result = 2.02

[[record]]
variant_description = "E17Y"
recorded_result = 2.44

[[record]]
variant_description = "R11E"
recorded_result = 4.6

[[record]]
variant_description = "Q3A"
recorded_result = 2.22

[[record]]
variant_description = "E17Q"
recorded_result = 2.63

[[record]]
variant_description = "Q24N"
recorded_result = 2.25

[[record]]
variant_description = "A15Y"
recorded_result = 4.12

[[record]]
variant_description = "L9I"
recorded_result = 2.33

[[record]]
variant_description = "S20H"
recorded_result = 2.1

[[record]]
variant_description = "A18V"
recorded_result = 2.75

[[record]]
variant_description = "R12G"
recorded_result = 4.97

[[record]]
variant_description = "A18M"
recorded_result = 2.08

[[record]]
variant_description = "Q23P"
recorded_result = 3.1

[[record]]
variant_description = "E17T"
recorded_result = 4.53

[[record]]
variant_description = "Q3L"
recorded_result = 2.47

[[record]]
variant_description = "D7R"
recorded_result = 1.73

[[record]]
variant_description = "R11G"
recorded_result = 5.29

[[record]]
variant_description = "L13T"
recorded_result = 5.03

[[record]]
variant_description = "A1R"
recorded_result = 2.29

[[record]]
variant_description = "E6G"
recorded_result = 1.73

[[record]]
variant_description = "A15C"
recorded_result = 1.34

[[record]]
variant_description = "L9T"
recorded_result = 4.59

[[record]]
variant_description = "T8S"
recorded_result = 2.03

[[record]]
variant_description = "Q23T"
recorded_result = 1.61

[[record]]
variant_description = "H21L"
recorded_result = 2.27

[[record]]
variant_description = "P16G"
recorded_result = 5.51

[[record]]
variant_description = "L9V"
recorded_result = 3.8

[[record]]
variant_description = "L9G"
recorded_result = 4.89

[[record]]
variant_description = "G2K"
recorded_result = 3.32

[[record]]
variant_description = "P22L"
recorded_result = 2.14

[[record]]
variant_description = "A15M"
recorded_result = 4.55

[[record]]
variant_description = "E4N"
recorded_result = 1.65

[[record]]
variant_description = "A18N"
recorded_result = 4.09

[[record]]
variant_description = "Q23N"
recorded_result = 2.17

[[record]]
variant_description = "L14V"
recorded_result = 5.37

[[record]]
variant_description = "L9N"
recorded_result = 4.61

[[record]]
variant_description = "S20C"
recorded_result = 1.62

[[record]]
variant_description = "A15D"
recorded_result = 5.39

[[record]]
variant_description = "L13F"
recorded_result = 3.32

